result type: melting point

Entry O[C@H]1CC[C@@H](CCN2CCC(=C3c4ccc(F)cc4Sc4ccc(C(F)(F)F)cc43)CC2)CC1 , melting point reported as 147 to 150 °C

The compound listed as COC(=O)CCCc1cc2cc(Cl)ccc2n1S(=O)(=O)c1ccc2nc(N)oc2c1 shows melting point equal to 238 °C

Record summary for OC(Cc1ccccn1)(c1ccccc1)c1ccccc1 : reported melting point = 147 to 151 °C

Lab note: O=c1c(Cc2ccccc2)c2n(c(=O)n1Cc1ccccc1)CCCS2 gave melting point of 110 to 112 °C

Measured melting point, COC(=O)Nc1nc(-c2ccccc2)c(-c2nc3ccccc3c(=O)n2-c2ccccc2C)s1 : > 275 °C

Values compiled from a melting point compilation (Tetko et al.; mined from patent text by program, amines drawn as free bases though some values may be those of a salt).
